Taken from patent US20260109776A1.

- TARGET_ENTITY: T1, human TNFR1 (human, UniProt P19438 30-455)
- T1 construct: whole, on cells
- T1 sequence (looked up): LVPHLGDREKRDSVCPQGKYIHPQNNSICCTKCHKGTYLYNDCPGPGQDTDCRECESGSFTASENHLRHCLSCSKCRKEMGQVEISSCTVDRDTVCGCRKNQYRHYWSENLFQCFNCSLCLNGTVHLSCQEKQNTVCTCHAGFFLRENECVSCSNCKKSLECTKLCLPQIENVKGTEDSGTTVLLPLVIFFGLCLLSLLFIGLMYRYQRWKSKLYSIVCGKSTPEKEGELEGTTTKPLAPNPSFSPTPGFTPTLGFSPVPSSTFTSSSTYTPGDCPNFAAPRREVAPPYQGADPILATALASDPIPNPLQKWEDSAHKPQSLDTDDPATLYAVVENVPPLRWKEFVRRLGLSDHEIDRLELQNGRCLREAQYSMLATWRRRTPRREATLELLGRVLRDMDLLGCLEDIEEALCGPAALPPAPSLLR
- ASSAY_INFO: flow cytometry, HEK293 transfectants vs control cells
- Experimental: The binding affinity of anti-human CD40 antibodies to human and cynomolgus monkey CD40 was measured by Octet assay (Table 3), quantifying association rate (Kon), disassociation rate (Kdis), and equilibrium binding constant (KD). Cross-reactivity of anti-CD40 antibodies to related TNF receptor superfamily (TNFRSF) members was evaluated by expressing human TNFR1, TNFR2, TNFR10, or TNFR14 on HEK293 cells by transient transfection of expression vectors encoding these genes. […]
MEASURED_PARAMETER: fold over control (gMFI) (fold)
Report the figure in fold without appending any unit label.

Consider 35F11 (antibody, IgG4, V domains shown, also called 4868-1) VH: QVQLVESGGGVVQPGRSLRLSCAASGFTLSSYGMHWVRQAPGKGLEWVAVIWYDGSNKYYADSVKGRVTISRDNSKNTLYLQMNSLRAEDTAVYYCTRDGRNYVYFDNWGQGTLVTVSS VL: QSALTQPRSVSGSPGQSVTISCTGTSSDVGGYIFVSWYQQHPGKAPKLMIYDVSKRPSGVPDRFSGSKSVNTASLTISGLQAEDETDYYCCSYAGNYTYVFGTGTKVTVLG . Its measured fold over control (gMFI) is 1

Consider 37A6 (antibody, IgG4, V domains shown, also called 4865-1) VH: QVQLVESGGGLVKPGGSLRLSCAASEFTFSDYYMSWIRQAPGKGLEWVSYISRSGDTIYYADSVKGRFTISRDNAKNSLYLQMNGLRAEDTAVYYCARDLAAGATGGLDCWGQGTLVTVSS VL: SYELTQPPSVSVSPGQTASITCSGERLGNKYICWYQQKPGQSPVLVIYQDFKRPSGIPERFSGSNSGITATLTISGTQAMDEADYYCQAWDSRTVVFGGGTKLTVLG . Its measured fold over control (gMFI) is 0.99

Consider 33H6 (antibody, IgG4, V domains shown, also called 4883-1) VH: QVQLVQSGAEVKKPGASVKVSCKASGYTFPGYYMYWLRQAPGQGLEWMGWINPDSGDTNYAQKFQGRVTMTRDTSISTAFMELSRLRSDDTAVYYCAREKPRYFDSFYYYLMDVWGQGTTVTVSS VL: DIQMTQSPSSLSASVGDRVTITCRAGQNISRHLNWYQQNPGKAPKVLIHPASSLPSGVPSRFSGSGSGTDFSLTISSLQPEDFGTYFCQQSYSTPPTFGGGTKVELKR . Its measured fold over control (gMFI) is 1

Consider 29H10 (antibody, V domains shown, also called 4877-1) VH: QVQLVQSGAEVTKPGASVKVSCKASGYTFAGYYMHWVRQAPGQGLEWMGWINPHSGGTNYAQKFQDRVTMTRDTSINTAYMELSRLRSDDTAVYYCARERISMVRGVGHNWFAPWGQGTLVTVSS VL: DIQMTQSPSSLSASVGDRVTITCRASQDISNNLAWFQQKPGKPPKSLMYAASSLHSGVPSTFSGSGSGTDFTFTISSLQPEDFATYYCQQYNSYPLTFGGGTKVEIRR . Its measured fold over control (gMFI) is 0.98
